Reported IC50 values follow for various molecules
Tested on: A549
Method description: Cytotoxicity against human A549 cells after 24 hrs by SRB assay
Type: functional, cell-based
Condition: A549, 24 h
Experimental endpoint: IC50

{"Molecule": "CS[C@@]1(Cc2ccccc2)NC(=O)[C@]2(SC)CC3=CC=C[C@H](O)[C@H]3N2C1=O", "Experimental endpoint": "IC50", "Measured": "> 10 µM"}
{"Molecule": "CS[C@@]12C[C@@H]3C(=O)C=C[C@H](O)[C@H]3N1C(=O)[C@]1(SC)C[C@@H]3C(=O)C=C[C@H](O)[C@H]3N1C2=O", "Experimental endpoint": "IC50", "Measured": "> 10 µM"}
{"Molecule": "O=C1C=C[C@H](O)[C@@H]2[C@@H]1C[C@@]13SS[C@]4(C[C@H]5C(=O)C[C@H](O)[C@H](O)[C@H]5N4C1=O)C(=O)N23", "Experimental endpoint": "IC50", "Measured": "> 10 µM"}
{"Molecule": "O=C1C=C[C@H](O)[C@@H]2[C@@H]1C[C@@]13SS[C@]4(C[C@@H]5C(=O)C=C[C@H](O)[C@H]5N4C1=O)C(=O)N23 [EPICORAZINE A]", "Experimental endpoint": "IC50", "Measured": "2.3 µM"}
{"Molecule": "COc1cccc2c1C(=O)c1c(O)c3c(c(O)c1C2=O)C[C@@](O)(C(=O)CO)C[C@@H]3O[C@H]1C[C@H](N)[C@H](O)[C@H](C)O1", "Experimental endpoint": "IC50", "Measured": "0.16 µM"}
{"Molecule": "O=C1C=C[C@H](O)[C@@H]2[C@@H]1C[C@@]13SS[C@]4(C[C@H]5C(=O)C=C[C@H](O)[C@H]5N4C1=O)C(=O)N23", "Experimental endpoint": "IC50", "Measured": "> 10 µM"}

---

Tested on: HL-60
Method description: Cytotoxicity against human HL60 cells after 72 hrs by MTT assay
Type: functional, cell-based
Condition: HL-60, 72 h
Experimental endpoint: IC50 (µM)

{"Molecule": "O=C1C=C[C@H](O)[C@@H]2[C@@H]1C[C@@]13SS[C@]4(C[C@H]5C(=O)C[C@H](O)[C@H](O)[C@H]5N4C1=O)C(=O)N23", "Experimental endpoint": "IC50", "Measure unit": "µM", "Inequality operator": "=", "Measured": 3.5}
{"Molecule": "CS[C@@]1(Cc2ccccc2)NC(=O)[C@]2(SC)CC3=CC=C[C@H](O)[C@H]3N2C1=O", "Experimental endpoint": "IC50", "Measure unit": "µM", "Inequality operator": ">", "Measured": 10}
{"Molecule": "O=C1C=C[C@H](O)[C@@H]2[C@@H]1C[C@@]13SS[C@]4(C[C@@H]5C(=O)C=C[C@H](O)[C@H]5N4C1=O)C(=O)N23 [EPICORAZINE A]", "Experimental endpoint": "IC50", "Measure unit": "µM", "Inequality operator": "=", "Measured": 0.05}
{"Molecule": "O=C1C=C[C@H](O)[C@@H]2[C@@H]1C[C@@]13SS[C@]4(C[C@H]5C(=O)C=C[C@H](O)[C@H]5N4C1=O)C(=O)N23", "Experimental endpoint": "IC50", "Measure unit": "µM", "Inequality operator": "=", "Measured": 1.6}
{"Molecule": "CS[C@@]12C[C@@H]3C(=O)C=C[C@H](O)[C@H]3N1C(=O)[C@]1(SC)C[C@@H]3C(=O)C=C[C@H](O)[C@H]3N1C2=O", "Experimental endpoint": "IC50", "Measure unit": "µM", "Inequality operator": "=", "Measured": 3.5}
